Tested on: HBV viral production from HepAD38 cells
measurement-description: Activity of test compounds on viral production from HepAD38 cells (viral load by qPCR of HBV core sequence in supernatant)
Assay type: cell-based
test-conditions: Hepatitis B virus, 120 h, 5 days incubation, HBV DNA in supernatant by qPCR, top concentration 10 μM, read-out: Viral Load EC50 Activity range
pEC50: −log10 of the molar value.
experimental-endpoint: pEC50

{"molecule": "O=C(Nc1ccc(F)c(Cl)c1)[C@@H]1C[C@H](c2nccs2)NS(=O)(=O)N1CCCN1CCOCC1", "experimental-endpoint": "pEC50", "experimental-result": "5.30 to 6.00"}
{"molecule": "COCCN1C(c2cccs2)CC(C(=O)Nc2ccc(F)c(Cl)c2)N(C)S1(=O)=O (stereo not shown)", "experimental-endpoint": "pEC50", "experimental-result": "< 5.30"}
{"molecule": "CN1[C@@H](C(=O)Nc2ccc(F)c(Cl)c2)C[C@@H](c2cc(-c3ccc(C#N)c(F)c3)cs2)NS1(=O)=O", "experimental-endpoint": "pEC50", "experimental-result": "< 5.30"}
{"molecule": "CN1[C@H](C(=O)Nc2ccc(F)c(Cl)c2)C[C@H](c2ccc(F)cc2)NS1(=O)=O", "experimental-endpoint": "pEC50", "experimental-result": "> 6.00"}
{"molecule": "COc1cccc(C2CC(C(=O)Nc3ccc(F)c(Cl)c3)N(C)S(=O)(=O)N2)c1 (stereo not shown)", "experimental-endpoint": "pEC50", "experimental-result": "> 6.00"}
{"molecule": "CN1C(C(=O)Nc2ccc(F)c(Cl)c2)CC(c2cnc(-c3ccccc3)s2)NS1(=O)=O (stereo not shown)", "experimental-endpoint": "pEC50", "experimental-result": "> 6.00"}
{"molecule": "O=C(Nc1ccc(F)c(Cl)c1)[C@H]1C[C@@H](c2nccs2)NS(=O)(=O)N1CCCN1CCCC1", "experimental-endpoint": "pEC50", "experimental-result": "< 5.30"}
